# target: MOR (mu opioid receptor) (Rattus norvegicus)
# Construct: from tissue; host or cells: rat brain membranes
# assay method text: MOR radioligand binding assay with [3H]-DAMGO
# assay conditions: selectivity ratio
K i DOR/K i MOR vs 20: less than gives 1 (yes); not less than gives 0 (no).

1. COC(=O)CCCN1CC[C@@]2(C)c3cc(O)ccc3C[C@@H]1[C@@H]2C | 1 (yes)
2. CCOC(=O)C(CCN1CCC2(C)c3cc(O)ccc3CC1C2C)c1ccccc1 (stereo not drawn) | 0 (no)
3. C[C@H]1[C@H]2Cc3ccc(O)cc3[C@]1(C)CCN2CCCC(=O)O | 1 (yes)
4. COC(CN1CCC2(C)c3cc(O)ccc3CC1C2C)c1ccccc1 (stereo not drawn) | 1 (yes)
5. C[C@H]1[C@H]2Cc3ccc(O)cc3[C@]1(C)CCN2CCCC(=O)NO | 0 (no)
6. COC(=O)CCN1CC[C@@]2(C)c3cc(O)ccc3C[C@@H]1[C@@H]2C | 0 (no)
7. CC1C2Cc3ccc(O)cc3C1(C)CCN2CCC(C(=O)O)c1ccccc1 (stereo not drawn) | 0 (no)
8. C[C@H]1[C@H]2Cc3ccc(O)cc3[C@]1(C)CCN2CCC(=O)NO | 1 (yes)
9. C[C@H]1[C@H]2Cc3ccc(O)cc3[C@]1(C)CCN2CCC(=O)O | 1 (yes)

* * *

# target: KOR (kappa opioid receptor) (Cavia porcellus, UniProt P41144)
# Construct: from tissue; host or cells: guinea pig brain membranes
# Sequence (P41144 whole entry): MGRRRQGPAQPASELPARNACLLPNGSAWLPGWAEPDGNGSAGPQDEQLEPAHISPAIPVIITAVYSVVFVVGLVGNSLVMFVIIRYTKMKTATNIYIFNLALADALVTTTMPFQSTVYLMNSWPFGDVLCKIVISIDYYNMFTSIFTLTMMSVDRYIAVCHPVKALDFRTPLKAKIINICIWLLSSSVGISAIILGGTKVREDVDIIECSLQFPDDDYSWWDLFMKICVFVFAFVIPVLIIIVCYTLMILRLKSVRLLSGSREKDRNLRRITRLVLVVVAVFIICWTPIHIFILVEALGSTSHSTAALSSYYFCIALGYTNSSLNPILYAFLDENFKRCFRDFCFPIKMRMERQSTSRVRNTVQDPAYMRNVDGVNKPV
# assay method text: KOR radioligand binding assay with [3H]-U69,593
# Design: species or system guinea pig
# assay conditions: K i (nM) ± SD KOR, [3H]-U69,593; mean ± SD of at least two experiments in duplicate
Ki listing for selected compounds.
reported metric: Ki

1. C[C@H]1[C@H]2Cc3ccc(O)cc3[C@]1(C)CCN2CCCC(=O)O [Compound 6] | > 5000 nM
2. C[C@H]1[C@H]2Cc3ccc(O)cc3[C@]1(C)CCN2CCC(=O)O [Compound 5] | > 5000 nM
3. COC(=O)CCN1CC[C@@]2(C)c3cc(O)ccc3C[C@@H]1[C@@H]2C [Compound 3] | 60.7 nM
4. C[C@H]1[C@H]2Cc3ccc(O)cc3[C@]1(C)CCN2CCCC(=O)NO [Compound 8] | > 5000 nM
5. COC(=O)CCCN1CC[C@@]2(C)c3cc(O)ccc3C[C@@H]1[C@@H]2C [Compound 4] | 70.5 nM
6. C[C@H]1[C@H]2Cc3ccc(O)cc3[C@]1(C)CCN2CCC(=O)NO [Compound 7] | > 5000 nM

* * *

# target: MOR (mu opioid receptor) (Rattus norvegicus, UniProt P33535)
# Construct: from tissue; host or cells: rat brain membranes
# Sequence (P33535 whole entry): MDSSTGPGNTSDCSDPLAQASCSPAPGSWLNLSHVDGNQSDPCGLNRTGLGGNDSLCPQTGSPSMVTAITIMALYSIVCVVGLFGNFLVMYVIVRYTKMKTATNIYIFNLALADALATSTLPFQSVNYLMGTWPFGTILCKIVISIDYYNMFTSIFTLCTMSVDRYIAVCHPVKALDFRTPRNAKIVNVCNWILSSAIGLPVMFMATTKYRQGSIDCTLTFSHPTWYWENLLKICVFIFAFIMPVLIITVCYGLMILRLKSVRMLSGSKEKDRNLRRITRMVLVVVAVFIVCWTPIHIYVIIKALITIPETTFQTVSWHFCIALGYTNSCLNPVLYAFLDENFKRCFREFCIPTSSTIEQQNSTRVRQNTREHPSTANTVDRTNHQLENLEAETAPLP
# assay method text: MOR radioligand binding assay with [3H]-DAMGO
pKi: −log10 of the molar value.
Use class 1 when the recorded pKi is no lower than 7; use class 0 when it is lower.

1. C[C@H]1[C@H]2Cc3ccc(O)cc3[C@]1(C)CCN2CCC(=O)NO | class 1
2. C[C@H]1[C@H]2Cc3ccc(O)cc3[C@]1(C)CCN2CCCC(=O)NO | class 1
3. C[C@H]1[C@H]2Cc3ccc(O)cc3[C@]1(C)CCN2CCC(=O)O | class 0
4. COC(=O)CCN1CC[C@@]2(C)c3cc(O)ccc3C[C@@H]1[C@@H]2C | class 1
5. C[C@H]1[C@H]2Cc3ccc(O)cc3[C@]1(C)CCN2CCCC(=O)O | class 0

* * *

# target: MOR (mu opioid receptor) (Rattus norvegicus, UniProt P33535)
# Construct: from tissue; host or cells: rat brain membranes
# assay method text: MOR radioligand binding assay with [3H]-DAMGO
# assay conditions: selectivity ratio
reported metric: K i KOR/K i MOR

1) COC(=O)CCN1CC[C@@]2(C)c3cc(O)ccc3C[C@@H]1[C@@H]2C [Compound 3] | 3.19
2) COC(CN1CCC2(C)c3cc(O)ccc3CC1C2C)c1ccccc1 (stereo not shown) [LP2] | 14.10
3) COC(=O)CCCN1CC[C@@]2(C)c3cc(O)ccc3C[C@@H]1[C@@H]2C [Compound 4] | 1.04
4) CCOC(=O)C(CCN1CCC2(C)c3cc(O)ccc3CC1C2C)c1ccccc1 (stereo not shown) [Compound 1] | 12.00

* * *

# target: DOR (delta opioid receptor) (Rattus norvegicus, UniProt P33533)
# Sequence (P33533 whole entry): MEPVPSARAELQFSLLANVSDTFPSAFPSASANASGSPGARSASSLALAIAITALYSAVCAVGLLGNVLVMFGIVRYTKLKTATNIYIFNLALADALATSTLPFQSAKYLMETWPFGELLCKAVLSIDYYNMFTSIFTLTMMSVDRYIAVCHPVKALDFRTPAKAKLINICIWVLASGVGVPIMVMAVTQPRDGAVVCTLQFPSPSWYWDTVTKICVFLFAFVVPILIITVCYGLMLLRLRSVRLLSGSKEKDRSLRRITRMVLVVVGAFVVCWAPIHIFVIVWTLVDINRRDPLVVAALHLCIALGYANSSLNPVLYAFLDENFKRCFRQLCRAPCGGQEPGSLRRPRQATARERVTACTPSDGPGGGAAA
# assay method text: DOR radioligand binding assay with [3H]-Delthorphin
pKi: −log10 of the molar value.
pKi listing for selected compounds.
reported metric: pKi

1) C[C@H]1[C@H]2Cc3ccc(O)cc3[C@]1(C)CCN2CCC(=O)O | 5.96
2) COC(=O)CCN1CC[C@@]2(C)c3cc(O)ccc3C[C@@H]1[C@@H]2C | 6.29
3) COC(=O)CCCN1CC[C@@]2(C)c3cc(O)ccc3C[C@@H]1[C@@H]2C | 6.66
4) C[C@H]1[C@H]2Cc3ccc(O)cc3[C@]1(C)CCN2CCCC(=O)NO | 5.89
5) C[C@H]1[C@H]2Cc3ccc(O)cc3[C@]1(C)CCN2CCC(=O)NO | 6.47
6) C[C@H]1[C@H]2Cc3ccc(O)cc3[C@]1(C)CCN2CCCC(=O)O | 5.92

# credit: paper PMC11671793
